The measured values listed here are drawn from PubChem BioAssay (NCI).

Tested on: RXF 393 renal
TEST DETAILS: NCI-60 one-dose screen, 48 h
PARTICULARS: 10 µM unless noted
This is part of a sample that, as a whole, favours compounds with a hit. Of some 83,000 tested, about 20% had one in any assay. Activity calls are given as the source filed them. Rule for the calls: active = growth percent below 10; inactive = the rest.
Choose one outcome from this list and give only that: yes for active, no for inactive

NS(=O)(=O)c1ccc(CCNC(=O)CSc2ccc(-c3ccc(Br)cc3)nn2)cc1
no
O=C(COc1ccc2c(c1)CCCC(=O)N2)NCc1ccccc1
no
CC(C)C(C(=O)O)n1c(O)c(/C=C2/C=c3cc4c(cc3=NC2=O)OCO4)sc1=S (centres undefined)
no
O=C(Nc1ccc(C(F)(F)F)cc1)Nc1ccc2oc(=O)ccc2c1
no
COc1cc(-c2nc3ccc(C)cc3[nH]2)ccc1OCc1nnc(-c2ccc(Br)cc2)o1
no

Could you now look at the following compound, please?
Exercise: Assay outcome for C#CCOc1cc(N(CC)CC)ccc1C(C(=O)NC(C)(C)C)N(C(=O)C1CCc2cc(F)ccc2O1)c1ccccc1Br (centres undefined) : what was it?
Key: no
